- Tested on: HT29 tumor cell line (Colon)
- assayOverview: Cell profiling, HT29
- Assay type: cell-based
- appliedConditions: Homo sapiens, HT-29
- Description: Cell viability assays were run using standard protocols known to those of skill in art. Cells were plated in 96 well plates at the density of 3,000-10,000 cells per well. Twenty four hours later, cells were treated with increasing concentration of test compounds (1 nM to 1 μM). After another 48 hour, cell survival was measured using CELL-TITER-GLO® reagent (Promega) following the protocol provided by the manufacture. […]
measuredQuantity: pIC50
Give only the number. pIC50 is defined as minus log10 of concentration in molar units.

Inquiry: Reported pIC50 for CCC(O)(CC)C(=O)N[C@H]1Cc2ccc3c(c2)C24C5=C(N=C(O5)[C@H](C(C)C)NC1=O)c1ncc(o1)-c1c[nH]c5cccc(c15)-c1cccc2c1NC4O3 (stereo in doubt) : what is it?
Reply text: 7.05

Data origin: patent US8476256B2
